assay: soluble on expression in E. coli; label from the status in PepcDB or PDB records
Value kind: soluble on expression in E. coli

MTASHGQAAAIPTVTLNDDNTLPVVGIGVGELSDSEAERSVSAALEAGYRLIDTAAAYGNEAAVGRAIAASGIPRDEIYVTTKLATPDQGFTSSQAAARASLERLGLDYVDLYLIHWPGGDTSKYVDSWGGLMKVKEDGIARSIGVCNFGAEDLETIVSLTYFTPAVNQIELHPLLNQAALREVNAGYNIVTEAYGPLGVGRLLDHPAVTAIAEAHGRTAAQVLLRWSIQLGNVVISRSANPERIASNLDVFGFELTADEMETLNGLDDGTRFRPDPATYTGS: soluble
MGSDKIHHHHHHMEKSEEKEIICRMFNSPLPHPSQNHLLAALPAMELGDLIPHLELIHMRAGDILCEAGDQLPYAYFPASAIISLHYILENGASSEIANVGREGMLGVSLFMGGETSSNWATVQIPGFAYRLKAAFLSQELKRGGQLQWILLRYSQALITQIAQIGVCNRYHTIEQQLCRWFLLTLDRLDSSELSMTQELIANALGVSRESVAGVAGKLQGRGIIRYQRGHITVLNRTGLETGACECYETIKKEFDDALDDVRKPTLHQGDQSSKTLPLL: not soluble
MGSDKIHHHHHHMNAPRFAAPARRTKKLPPLRVGIGGPVGSGKTTLLEMLCKGMRERYDLVAITNDIYTKEDQRLLTIAGALPEARIMGVETGGCPHTAIREDASINLEAVERMLARFPDADIVFIESGGDNLAATFSPELSDLTIYVIDVAGGEKIPRKGGPGITKSDLLVINKTDLAPLVGANLEVMASDTRKMRGERPYVMCNLKALDGVADVIAFIENKGLLTV: not soluble
MGSDKIHHHHHHMPTITAKIQIHVSDNQAESLKITTNAYRKACNWLSKHIFETKNLNQVNLNNLYYSDLRNQFRLKSQMAQSVMKTVIARYKSAKSNGHEWSLIDFKLAEYDLVWNRDYSLTKNQFSVNTLEGRLKLNYERKAMKKYFNSTWKFGTAKLVHKYKKWFLHIPMTKEYQTLDFADVNNIVGVDLGINFLATTYDSQSKTTFYNGNIVKHKRGKFKATRKQLQTRQTPSSRKKIKQIGSRENRYVTDVNHQITKALVEAYPRGTMFVLEDLTGVRSATEKVRVKNRYVSVSWAFYQFRQMLEYKAELNGQKVIVVDPKYTSQTCPKCGNIEKANRNKKLHTFKCKNCQYQSNDDRISAMNLHRKGIKHISVVTTGV: not soluble
MSLRKFIDLHLHLDGSVPVSTVKKLMQEHDLPIPTDQELRQELSVDSSCKSLDQFLEKFALPNKLMQTRHDLETIVYDLLTELKAQGLVYAEIRFAPQLHTKEGLTQEDAIKAAISGLNKFLYDQKEKNDSPELHAGLILCLMRFSNNQKENIETVELAKKFLNKGVVGLDLAGAEGPIPNIKYKSFFNQAQQLGVPYTIHAGEADGPDSIRQALAMGAKRIGHGIRCTEDTQLTQELIDQQIVLECCATSNMNTKAFDQIDSYPIKKLLHKGMKVTLNSDDMTVSDTNLLHEYKVLEKRTDLTPEEETTLYLNAVDAAFTTPDEKIRLRAFLQKEGHHHHHH: soluble
MDSTMTNYMGQENLPPALKLINDKSYQYSTHKHNIETSNDGTLHSYTIVLSREPLESPTSYNKYQKNVEPVQKENQKPKDLNKMTAGPHIAVKNSSGLVSQISSTTSSERKRRTLARPSSSSESDLKVGNIQQSNQYFTLPSVMKPSALSTEDPKKVIVQSNTSSSSMSDASSKKSLPTYTYLSGHTTGSARYVTMVNVKFLLLHCDVLQRRAQSMFTDEFPSDCRLEEVVINFHQLCCRQLLDQNFNPRLSYCIGELNYSDSKPVSANDMSKTLAQLATTQSIAQLSIIVDVTEKNMKLK: not soluble

Reported soluble on expression in E. coli for MELINKDTLQIKEFISSLDSMLDGIESIVKHYKPHLNGERFLSNNEVSKKLNVSLRTLQEWRDTGLIPFIQIKGKIIYRQSDIDKLLQKHYFEGWKE was not soluble

Taken from the DeepSol protein solubility set.
